Read-out: catalase (CAT), CAT (gene 847)
Experiment: LTEA_HepaRG_CAT: Life Technologies and Expression Analysis (LTEA) Assay for catalase (CAT) using HepaRG (AID 2283452)
Details: mRNA level, 48 h; actives raise or lower the signal
Calls of active or inactive are those of the source. The calls were made as follows: active = hit-call score of the fitted dose curve at least 0.9, where 1 is the maximum; inactive = score below 0.9.
The reply should be one of these categories: 1.0 = active, 0.0 = inactive

**Q:** What did this assay record as the result for Nc1ccccc1N ?
**A:** 1.0

**Q:** Cc1ccc(N(C)C)cc1 ?
**A:** 0.0

**Q:** CC1(C)CC(N=C=O)CC(C)(CN=C=O)C1 (configuration not stated) ?
**A:** 0.0

**Q:** COc1ccc(C)cc1N ?
**A:** 0.0

**Q:** C=CCc1ccc(O)c(OC)c1 ?
**A:** 0.0

**Q:** CN[C@H]1CC[C@@H](c2ccc(Cl)c(Cl)c2)c2ccc(S(N)(=O)=O)cc21 ?
**A:** 1.0

**Q:** CC(=O)OCCOCCOCCOC(C)=O ?
**A:** 0.0

**Q:** CCCCCCCCCCCCCCCCCC(=O)O ?
**A:** 0.0

**Q:** Cc1c(C(=O)O)c(O)cc2c1C(=O)c1c(O)c([C@@H]3O[C@H](CO)[C@@H](O)[C@H](O)[C@H]3O)c(O)c(O)c1C2=O ?
**A:** 0.0

**Q:** CCCCCCCCCCO ?
**A:** 0.0

**Q:** CCc1c(C(=O)NN2CCCCC2)nn(-c2ccc(Cl)cc2Cl)c1-c1ccc(Br)cc1 ?
**A:** 1.0

**Q:** Clc1cc(Cl)c(Cl)cc1Cl ?
**A:** 0.0

**Q:** CCCCCCCCCCCC(=O)OC ?
**A:** 0.0

**Q:** CC(=O)C(C)=CC1C(C)=CCCC1(C)C (configuration not stated) ?
**A:** 0.0

**Q:** OC[C@@H](O)[C@@H](O)[C@H](O)[C@H](O)CO ?
**A:** 0.0

**Q:** Cc1cccc(C)c1O ?
**A:** 0.0

**Q:** Cc1cccc([N+](=O)[O-])c1C ?
**A:** 0.0

**Q:** COc1cc(C=O)ccc1O ?
**A:** 0.0

**Q:** Cc1cc(NC(=O)C(=O)O)cc(C)c1Oc1ccc(O)c2c1CCC2 ?
**A:** 1.0

**Q:** CCCCc1ccc2c(n1)[C@@H](c1ccc(OC)cc1C[C@H](C)C(=O)O)[C@H](C(=O)O)[C@H]2c1ccc2c(c1)OCO2 ?
**A:** 0.0

**Q:** Oc1ccc2ccccc2c1N=Nc1ccccc1 ?
**A:** 1.0

**Q:** O=c1[nH]cc(F)c(=O)[nH]1 ?
**A:** 1.0

**Q:** Cc1nc(C)nc(N2C[C@@H](C)N(c3ccnc([C@@H](C)O)n3)[C@@H](C)C2)n1 ?
**A:** 0.0

**Q:** Cc1ccccc1Cl ?
**A:** 0.0

**Q:** CC(=O)Oc1ccccc1C(=O)O ?
**A:** 0.0

**Q:** COC(=O)c1ccc(O)cc1 ?
**A:** 0.0

**Q:** CCCCN(CCCC)CCCC ?
**A:** 0.0

**Q:** CCCCCCCCCCC ?
**A:** 0.0

**Q:** CN1CCN(Cc2cc(-c3ccc4[nH]c(=O)oc4c3)co2)[C@@H](c2ccc(F)cc2)C1 ?
**A:** 1.0

**Q:** C=CCOC(=O)c1ccccc1C(=O)OCC=C ?
**A:** 0.0

**Q:** CCNc1cccc(C)c1 ?
**A:** 0.0

**Q:** O=C(O)CCCCC(=O)O ?
**A:** 0.0

**Q:** CCOc1ccc2c(c1)C(C)=CC(C)(C)N2 ?
**A:** 0.0

**Q:** Cc1cccc(Nc2cc(Cl)nc(SCC(=O)O)n2)c1C ?
**A:** 0.0

**Q:** COc1ccc(S(=O)(=O)N2C(=O)[C@@](c3ccccc3OC)(N3C[C@H](O)C[C@H]3C(=O)N(C)C)c3cc(Cl)ccc32)c(OC)c1 ?
**A:** 1.0

**Q:** NC(=O)Cn1c(=O)cc(CCN2CCN(c3nccc4sccc34)CC2)c2ccc(F)cc21 ?
**A:** 0.0

**Q:** O=c1c(O)c(-c2ccc(O)c(O)c2)oc2cc(O)cc(O)c12 ?
**A:** 0.0

**Q:** CCCCCCCCCCCCCCCC ?
**A:** 0.0

**Q:** c1cc(-c2ccncc2)ccn1 ?
**A:** 0.0

**Q:** CCCCCCCC=O ?
**A:** 1.0

**Q:** COc1ccc2c(c1)c(CC(=O)O)c(C)n2C(=O)c1ccc(Cl)cc1 ?
**A:** 0.0

**Q:** CCCCOC(=O)CCCCCCCCC(=O)OCCCC ?
**A:** 0.0

**Q:** CC(=O)OC/C=C(\C)CCC=C(C)C ?
**A:** 0.0

**Q:** CC1(C)NC(=O)NC1=O ?
**A:** 0.0

**Q:** CCCCCCOCCO ?
**A:** 0.0

**Q:** COc1cc(-c2nc(NC(=O)c3cc4cc(C)cc(C)c4n3CC(=O)O)sc2CCC2CCCCC2)c(OC)cc1Cl ?
**A:** 1.0

**Q:** Cc1ccc2ncccc2c1 ?
**A:** 0.0

**Q:** COCCOCCOC ?
**A:** 0.0

**Q:** FC(F)(F)C(F)(F)C(F)(F)C(F)(F)C(F)(F)C(F)(F)CCI ?
**A:** 0.0

**Q:** C[C@]12C=CC(=O)C=C1CC[C@@H]1[C@@H]2C(=O)C[C@@]2(C)[C@H]1CC[C@]2(O)C(=O)CO ?
**A:** 0.0

**Q:** CNC(=O)[C@H]1O[C@@H](n2cnc3c(NCc4cc(Cl)ccc4OCc4cc(C)no4)ncnc32)[C@H](O)[C@@H]1N ?
**A:** 0.0

**Q:** Oc1ccc2c(c1)OC[C@@H](N1CCC(O)(c3ccc(F)cc3)CC1)[C@H]2O ?
**A:** 0.0
